tested on: large crabgrass (Digitaria sanguinalis, DIGSA); test: Post-emerge test, greenhouse herbicide activity screening; assay type: in vivo; conditions: Digitaria sanguinalis, post-emergence, 336 h; post-emerge, 250 g ai/ha, phytotoxicity rating 0-100 at 14 days after application; read-out: Post-emerge Herbicidal Activity DIGSA
Here, each record is paired with measured pest or weed control at 250 g/ha data.
Test Readout: pest or weed control at 250 g/ha (%)

> print(dat)
                           molecular.string  reading
1  COc1c(Cl)cc(Cl)c(-n2nc(C)n(C(F)F)c2=O)c1NC(=O)c1ccc2ccccc2c1       20
2  COc1c(Cl)cc(F)c(-c2nn(C)c(C(F)(F)F)c2Cl)c1NC(=O)c1ccc2ccccc2c1       10
3  CC(C)Oc1c(Cl)cc(F)c(N2C(=O)C3=C(CCCC3)C2=O)c1N        0
4  Nc1c(O)c(Cl)cc(F)c1N1C(=O)C2=C(CCCC2)C1=O       30
